# System: NCI-H322M multicellular tumor spheroids, viability (% test/control)
# experimental.details: Anticancer human tumor NCI-H322M cell line growth inhibition;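 further: spheroids exposed to compound for seven days before readout; 100% = DMSO vehicle control wells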
# experimental.conditions: second compound 94.9 pM; first compound 10 µM; stronger effect = lower value
test.readout: viability, T/C (%)

compound: [2H]c1nc(C)nc([2H])c1-c1cc(NC[C@@H](C)c2cccc3c(C(=O)NC)ccnc23)ncn1 + COc1cc2c(cc1O)CCNC21CSC2c3c(OC(C)=O)c(C)c4c(c3C(COC1=O)N1C(O)C3Cc5cc(C)c(OC)c(O)c5C(C21)N3C)OCO4
readout.unit: %
endpoint.value: 94.9
//
compound: CC1COCCN1c1cc(-c2ccnn2C)c2ccnc(-c3ccn[nH]3)c2n1 (configuration not stated) + COc1cc2c(cc1O)CCNC21CSC2c3c(OC(C)=O)c(C)c4c(c3C(COC1=O)N1C(O)C3Cc5cc(C)c(OC)c(O)c5C(C21)N3C)OCO4
readout.unit: %
endpoint.value: 32.3

This collection of values is drawn from PubChem BioAssay AID1845211.
